- Test system: U2OS
- assay.name: cell viability relative to DMSO; higher = less toxic
- run.parameters: 72 h; 1000 nM
Provide the recorded cell viability for the entries that follow.
Give bare numbers, in %.

Below are worked cases with known answers.
CCCCNc1ccc(C(=O)OCCN(C)C)cc1 : 98.2
O=C1c2c(O)cccc2C([C@@H]2O[C@H](CO)[C@@H](O)[C@H](O)[C@H]2O)c2cc(CO)cc(O)c21 (some centres undefined) : 97.4
CN1CCN(c2nc(C3=C(c4c[nH]c5ccccc45)C(=O)NC3=O)c3ccccc3n2)CC1 : 95

We now examine a further molecule.
**Q:** Fill in cell viability for CC(C)=CCC/C(C)=C/CC/C(C)=C/CC[C@]1(C)CCc2cc(O)cc(C)c2O1 tested with U2OS.
**A:** 102

====

- Test system: HepG2
- assay.name: cell viability relative to DMSO; higher = less toxic
- run.parameters: 72 h; 100 nM
Provide the recorded cell viability for the entries that follow.
One number for each entry, in %.

CN(C)C/C=C(/c1ccc(Br)cc1)c1cccnc1 [zimelidine] : 102
COC(=O)c1cc(OC)c2c(c1-c1c(C(=O)OC)cc(OC)c3c1OCO3)OCO2 [bifendate] : 93.2
CC(=O)OCC(=O)[C@@]12N=C(C)O[C@@H]1C[C@H]1[C@@H]3CCC4=CC(=O)C=C[C@]4(C)[C@H]3[C@@H](O)C[C@@]12C [Deflazacort (Calcort)] : 110
Cc1nc(C)c(C)nc1C [chuanxiongzine] : 97.1
NC1CCN(c2cccc(Cl)n2)CC1 : 102

Give cell viability for each of the items listed below.
1. O=C(O)C(F)(F)C(F)(F)C(F)(F)C(F)(F)C(F)(F)C(F)(F)C(F)(F)F [ammonium-perfluorocaprylate]
2. N=C(N)NC(=O)c1cnccn1 [pyrazinoylguanidine]
3. C[C@@H](O)[C@H]1C(=O)N2C(C(=O)O)=C(S[C@@H]3CN[C@H](CNS(N)(=O)=O)C3)[C@H](C)[C@H]12 [doripenem]
4. O=C1/C(=C/c2ccccc2)C[C@@]2(O)[C@H]3Cc4ccc(O)c5c4[C@@]2(CCN3CC2CC2)[C@H]1O5 [BNTX]
5. Nc1nc(=O)n([C@@H]2CS[C@H](CO)O2)cc1F [emtricitabine]
6. c1ccc(C(NCCNC(c2ccccc2)c2ccccc2)c2ccccc2)cc1 [AMN-082]

**A:**
1: 97.3; 2: 94.9; 3: 91; 4: 110; 5: 102; 6: 108

Give cell viability for each of the items listed below.
1. COc1ccccc1OCC(O)CO (configuration not stated) [guaifenesin]
2. CC[C@H](C)[C@@H]([C@@H](CC(=O)N1CCC[C@H]1[C@H](OC)[C@@H](C)C(=O)N[C@@H](Cc1ccccc1)c1nccs1)OC)N(C)C(=O)[C@@H](NC(=O)[C@H](C(C)C)N(C)C)C(C)C [dolastatin-10]
3. COc1cc2c(Oc3ccc4[nH]c(C)cc4c3F)ccnc2cc1OCC1(N)CC1 [anlotinib]
4. CCn1cc(C(=O)O)c(=O)c2cnc(N3CCNCC3)nc21 [pipemidic-acid]
5. NS(=O)(=O)c1cc2c(cc1Cl)N=C(CSCc1ccccc1)NS2(=O)=O [benzthiazide]
6. O=S(=O)(O)c1cc(O)ccc1O [etamsylate]

**A:**
98.7
32.5
101
107
101
110

====

- System: A549-ACE2 infected with SARS-CoV-2
- assay.name: morphology score (similarity to uninfected cells); higher = more like uninfected cells
- run.parameters: 3 µM; 24 h
Provide the recorded morphology score for the entries that follow.
One number for each entry.

Below are worked cases with known answers.
CC(Cc1ccccc1)NCCC(c1ccccc1)c1ccccc1 (stereo not drawn) [prenylamine] : 0.78
O=C(NC1CCN(CCCCC2(C(=O)NCC(F)(F)F)c3ccccc3-c3ccccc32)CC1)c1ccccc1-c1ccc(C(F)(F)F)cc1 [lomitapide] : 0.91

We now examine a further molecule.
**Q:** Output measured morphology score for this item: CC1(C)CC[C@]2(NC(=O)C(C)(F)F)CC[C@]3(C)[C@H](C(=O)C=C4[C@@]5(C)C=C(C#N)C(=O)C(C)(C)[C@@H]5CC[C@]43C)[C@@H]2C1 [Omaveloxolone (RTA-408)]
**A:** 0.09

====

- System: Caco-2
- assay.name: cell viability relative to DMSO; higher = less toxic
- run.parameters: 72 h; 100 nM
measurement.kind: cell viability
Answer format: value, then unit.

Below are worked cases with known answers.
O=S(=O)(c1ccccc1)N(CC(F)(F)F)c1ccc(C(O)(C(F)(F)F)C(F)(F)F)cc1 : 93.9%
CN(C)C/C=C(/c1ccc(Br)cc1)c1cccnc1 : 90.6%
Cc1ccc(Cl)cc1N(CC(=O)Nc1c(F)cccc1F)S(C)(=O)=O : 111%
CCN(CC)CCOC(=O)C(c1ccccc1)C1CCCCC1 (centres undefined) : 99.3%
COc1cc2c(cc1OC)C(c1ccc(N)cc1)=NNC(=O)C2 : 98.7%
C[C@]1(COc2ccc(N3CCC(Oc4ccc(OC(F)(F)F)cc4)CC3)cc2)Cn2cc([N+](=O)[O-])nc2O1 : 103%

Give cell viability for each of the items listed below.
1. CCn1cc(-c2ccnc3[nH]c(-c4cccc(CN(C)C)c4)cc23)c(-c2ccc(NC(=O)N(C)C)cc2)n1
2. COc1cc(C(C)=O)ccc1OCCCN1CCC(c2noc3cc(F)ccc23)CC1

**A:**
1. 98%
2. 84.8%

**Q:** Fill in cell viability for NS(=O)(=O)c1cc2c(cc1Cl)NC(C1CC3C=CC1C3)NS2(=O)=O (centres undefined) [cyclothiazide] tested with Caco-2.
**A:** 103%

====

- Tested on: Calu-3
- assay.name: cell viability relative to DMSO; higher = less toxic
- run.parameters: 72 h; 10000 nM
measurement.kind: cell viability (%)
Answers are plain numbers, in %.

Give cell viability for each of the items listed below.
1. CCN(CC)C(=O)[C@@]1(c2ccccc2)C[C@H]1CN
2. N[C@@H](CC(=O)N1CCn2c(nnc2C(F)(F)F)C1)Cc1n[nH]c2c(F)c(F)ccc12
3. O=C(O)/C=C1\CCCc2ccccc2[C@H]1O (racemic)
4. c1ccc(CNCc2ccc(CN3CCCNCCNCCCNCC3)cc2)nc1
5. CCN[C@H]1CN(CCCOC)S(=O)(=O)c2sc(S(N)(=O)=O)cc21 [brinzolamide]
6. O=c1ccc2ccc(O)c(O)c2o1
7. CCCCS(=O)(=O)N[C@@H](Cc1ccc(OCCCCC2CCNCC2)cc1)C(=O)O
8. Nc1ccncc1

**A:**
[97.9, 100, 101, 115, 102, 110, 110, 100]

====

- Tested on: Calu-3
- assay.name: cell viability relative to DMSO; higher = less toxic
- run.parameters: 72 h; 1 nM
Provide the recorded cell viability for the entries that follow.
One number for each entry, in %.

Below are worked cases with known answers.
Nc1ccc([As](=O)(O)O)cc1 : 114
COc1cc2ncnc(Nc3cccc(Cl)c3F)c2cc1OC(=O)N1CCN(C)C[C@H]1C : 86.5
CCCOc1ccc2[nH]c(NC(=O)OC)nc2c1 : 102
CCCCNc1ccc(C(=O)OCCN(C)C)cc1 : 107

We now examine a further compound.
**Q:** Output measured cell viability for this item: COc1cc(/C=C/C(=O)N2CCN(CC(=O)N3CCCC3)CC2)cc(OC)c1OC [cinepazide]
**A:** 104

====

Provide the recorded cell viability for the entries that follow.
- Test system: Caco-2
- assay.name: cell viability relative to DMSO; higher = less toxic
- run.parameters: 72 h; 100 nM
Give bare numbers, in %.

Below are worked cases with known answers.
O=C(O)C(F)(F)C(F)(F)C(F)(F)C(F)(F)C(F)(F)C(F)(F)C(F)(F)F [ammonium-perfluorocaprylate] : 107
N#CC(c1ccnc(OCc2ccc(CN3CCOCC3)cc2)n1)c1nc2ccccc2s1 (stereo not drawn) : 98.4
CC(C)Oc1cccc(-n2c(CCc3c[nH]c4ccc(Br)cc34)nc3ccccc3c2=O)c1 : 101
CC(=O)OCC(=O)[C@@]12N=C(C)O[C@@H]1C[C@H]1[C@@H]3CCC4=CC(=O)C=C[C@]4(C)[C@H]3[C@@H](O)C[C@@]12C : 92.8
CN1CCCN=C1COC(=O)C(O)(c1ccccc1)C1CCCCC1 (stereo not drawn) : 100

Give cell viability for each of the items listed below.
1. CN(CCOc1ccc(C[C@H](Nc2ccccc2C(=O)c2ccccc2)C(=O)O)cc1)c1ccccn1
2. O=[N+]([O-])c1ncc[nH]1
3. C/C=C1\NC(=O)[C@H]2CSSCC/C=C/[C@H](CC(=O)N[C@H](C(C)C)C(=O)N2)OC(=O)[C@H](C(C)C)NC1=O

**A:**
1. 107
2. 107
3. 6.6

====

- Test system: Calu-3
- assay.name: cell viability relative to DMSO; higher = less toxic
- run.parameters: 72 h; 10 nM
Provide the recorded cell viability for the entries that follow.
Numbers only, in %.

Below are worked cases with known answers.
CCn1cc(-c2ccnc3[nH]c(-c4cccc(CN(C)C)c4)cc23)c(-c2ccc(NC(=O)N(C)C)cc2)n1 : 110
O=C(CCCCCCC(=O)NO)NO : 95.9
CCN1CCN(Cc2ccc(C(=O)Nc3ccc(C)c(Oc4ccc5c(c4)CC(=O)N5)c3)cc2C(F)(F)F)CC1 : 101

We now examine a further molecule.
**Q:** Output measured cell viability for this item: CC1=NN(c2ccc(C)c(C)c2)C(=O)/C1=N\Nc1cccc(-c2cccc(C(=O)O)c2)c1O
**A:** 102
